Hey, just so you know, these numbers are from patent US11596639B2.

# Target Desc: Mcl-1 (Homo sapiens (Human))
# Sequence (Q07820 172-327): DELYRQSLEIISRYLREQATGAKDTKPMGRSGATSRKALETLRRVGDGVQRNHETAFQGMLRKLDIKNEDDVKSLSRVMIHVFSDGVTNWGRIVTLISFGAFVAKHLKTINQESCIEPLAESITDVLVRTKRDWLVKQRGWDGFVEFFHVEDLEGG
# Method Notes: Fluorescence polarization anisotropy (FPA) competition assay, FITC-Bak or FITC-Bim BH3 peptide
# Assay type: binding
# Condition Label: read-out: Ki for Inhibition of Mcl-1 by FPA assay
Endpoint: pKi
Please express pKi as -log10 of the molar concentration.

Below, each entry is followed by its recorded pKi result.
INSERT INTO assay_data (compound, endpoint, reported) VALUES
  ('Cc1cc(OCCCc2c3n(c4c(-c5c(C)nn(C)c5C)c(Cl)ccc24)[C@H](C)CN(c2cc(C(=O)O)cc4c2OCCO4)C3=O)cc(C)c1Cl', 'pKi', 8.89),
  ('Cc1cc(OCCCc2c3n(c4c(-c5c(C)nn(C)c5C)c(Cl)ccc24)[C@H](C)CN(c2cccc4cc(C(=O)O)n(C(C)c5ccccn5)c24)C3=O)cc(C)c1Cl (some centres unmarked)', 'pKi', 8.49);

Proceed to the following item.
Problem: Provide measured pKi value, entry: COC(=O)c1cn(C)c2c(N3C[C@@H](C)n4c(c(CCCOc5cc(C)c(Cl)c(C)c5)c5ccc(Cl)c(-c6c(C)nn(C)c6C)c54)C3=O)cccc12
Result: 8.62

====

Each entry below lists one item and its recorded GI50 value.
# System: H929 human cancer cell lines
# Method Notes: Cellular viability / proliferation (Cell TiterGlo, 72 h)
# Type: cell-based
# Condition Label: Homo sapiens, NCI-H929, 72 h, read-out: GI50 on cellular proliferation of H929 human cancer cell lines, H929 cells, 72 h, Cell TiterGlo, 10% FBS
Provide only the numeric value, understood in µM.

INSERT INTO assay_data (molecule, endpoint, reported) VALUES
  ('Cc1cc(OCCCc2c3n(c4c(-c5c(C)nn(C)c5C)c(Cl)ccc24)[C@H](C)CN(c2cn(C)c4ncc(C(=O)O)nc24)C3=O)cc(C)c1Cl', 'GI50', 1.5),
  ('Cc1cc(OCCCc2c3n(c4c(-c5c(C)ncnc5C)c(Cl)ccc24)[C@H](C)CN(c2cn(C)c4ccc(C(=O)O)nc24)C3=O)cc(C)c1Cl', 'GI50', 0.29),
  ('Cc1cc(OCCCc2c3n(c4c(-c5c(C)nn(C)c5C)c(Cl)ccc24)[C@H](C)CN(c2cn(C)c4ccc(-n5cncn5)cc24)C3=O)cc(C)c1Cl', 'GI50', 0.94),
  ('Cc1cc(OCCCc2c3n(c4c(-c5c(C)nn(C)c5C)c(Cl)ccc24)[C@H](C)CN(c2cn(C)c4ccc(-c5ncn(CC6COC6)n5)cc24)C3=O)cc(C)c1Cl', 'GI50', 0.25),
  ('COC(=O)c1ccc2c(c1)c(N1C[C@@H](C)n3c(c(CCCOc4cc(C)c(Cl)c(C)c4)c4ccc(Cl)c(-c5c(C)nn(C)c5C)c43)C1=O)cn2C (single isomer, unassigned)', 'GI50', 1);

API: the following record is the query input.
Problem: Give GI50 for Cc1cc(OCCCc2c3n(c4c(-c5c(C)nn(C)c5C)c(Cl)ccc24)[C@H](C)CN(c2cn(CCCl)c4ccc(-c5ncn(C)n5)cc24)C3=O)cc(C)c1Cl tested on H929 human cancer cell lines.
Result: 0.52

====

# System: H929 human cancer cell lines
# Method Notes: Cellular viability / proliferation (Cell TiterGlo, 72 h)
# Type: cell-based
# Condition Label: Homo sapiens, NCI-H929, 72 h, read-out: GI50 on cellular proliferation of H929 human cancer cell lines, H929 cells, 72 h, Cell TiterGlo, 10% FBS
Measured log10 GI50 of individual entries
Please interpret these as log10 of GI50 where GI50 is in µM.

INSERT INTO assay_data (cpd_smiles, target_desc, endpoint, reported) VALUES
  ('Cc1cccc(Cn2cnc(-c3ccc4c(c3)c(N3C[C@@H](C)n5c(c(CCCOc6cc(C)c(Cl)c(C)c6)c6ccc(Cl)c(-c7c(C)nn(C)c7C)c65)C3=O)cn4CC(=O)N(C)C)n2)n1', 'H929 human cancer cell lines', 'log10 GI50', -0.05),
  ('Cc1cc(OCCCc2c3n(c4c(-c5c(C)ncnc5C)c(Cl)ccc24)[C@H](C)CN(c2cn(C)c4ccc(C(=O)O)cc24)C3=O)cc(C)c1Cl', 'H929 human cancer cell lines', 'log10 GI50', -0.57),
  ('Cc1cc(OCCCc2c3n(c4c(-c5c(C)nn(C)c5C)c(Cl)ccc24)[C@H](C)CN(c2ccnc4c(C(=O)O)cccc24)C3=O)cc(C)c1Cl', 'H929 human cancer cell lines', 'log10 GI50', 0.04),
  ('Cc1cc(OCCCc2c3n(c4c(-c5c(C)nn(C)c5C)c(Cl)ccc24)[C@H](C)CN(c2cn(C)c4cc(-c5nnco5)ccc24)C3=O)cc(C)c1Cl', 'H929 human cancer cell lines', 'log10 GI50', 0.56);

Kindly review the next molecule as well.
Problem: Report log10 GI50, nothing else, for this molecule: COc1ccnc(Cn2c(C(=O)O)cc3cccc(N4C[C@@H](C)n5c(c(CCCOc6cc(C)c(Cl)c(C)c6)c6ccc(Cl)c(-c7c(C)nn(C)c7C)c65)C4=O)c32)c1
Result: -0.39

====

# System: H929 human cancer cell lines
# Method Notes: Cellular viability / proliferation (Cell TiterGlo, 72 h)
# Type: cell-based
# Condition Label: Homo sapiens, NCI-H929, 72 h, read-out: GI50 on cellular proliferation of H929 human cancer cell lines, H929 cells, 72 h, Cell TiterGlo, 10% FBS
Threshold-based label: GI50 under 0.6 µM gives Fulfilled, GI50 not under 0.6 µM gives Not fulfilled.

Example results:
INSERT INTO measurements (compound, assigned_category) VALUES
  ('Cc1cc(OCCCc2c3n(c4c(-c5c(C)nn(C)c5C)c(Cl)ccc24)[C@H](C)CN(c2cn(C)c4ccc(-c5nc6c(C)cccn6n5)cc24)C3=O)cc(C)c1Cl [Example 698]', 'Not fulfilled'),
  ('Cc1cc(OCCCc2c3n(c4c(-c5c(C)ncnc5C)c(Cl)ccc24)CCCNC3=O)cc(C)c1Cl [Example 120]', 'Not fulfilled'),
  ('Cc1cc(N2C[C@@H](C)n3c(c(CCCOc4cc(C)c(Cl)c(C)c4)c4ccc(Cl)c(-c5c(C)nn(C)c5C)c43)C2=O)c2c(c1)cc(C(=O)O)n2CCOC(C)C [Example 578]', 'Fulfilled'),
  ('COCCOc1ccc(N2C[C@@H](C)n3c(c(CCCOc4cc(C)c(Cl)c(C)c4)c4ccc(Cl)c(-c5c(C)nn(C)c5C)c43)C2=O)c2c1cc(C(=O)O)n2Cc1cc(C)ccn1 [Example 632]', 'Fulfilled'),
  ('CCn1nc2c(N3C[C@@H](C)n4c(c(CCCOc5cc(C)c(Cl)c(C)c5)c5ccc(Cl)c(-c6c(C)nn(C)c6C)c54)C3=O)cccc2c1C(=O)O [Example 117]', 'Fulfilled'),
  ('Cc1cc(OCCCc2c3n(c4c(-c5c(C)nn(C)c5C)c(Cl)ccc24)[C@H](C)CN(c2cc(N(C)C(=O)CN4CCCCC4)cc4c(C(=O)O)cn(C)c24)C3=O)cc(C)c1Cl [Example 612]', 'Not fulfilled'),
  ('Cc1cc(N2C[C@@H](C)n3c(c(CCCOc4cc(C)c(Cl)c(C)c4)c4ccc(Cl)c(-c5c(C)nn(C)c5C)c43)C2=O)c2c(c1)cc(C(=O)O)n2Cc1cccc(C)n1 [Example 457]', 'Fulfilled'),
  ('Cc1cc(OCCCc2c3n(c4c(-c5c(C)nn(C)c5C)c(Cl)ccc24)[C@H](C)CN(c2cccc4cc(C(=O)O)n(CC5CCO5)c24)C3=O)cc(C)c1Cl (some centres unmarked) [Example 374]', 'Not fulfilled');

Problem: Quick check: GI50 of Cc1cc(OCCCc2c3n(c4c(-c5c(C)nn(C)c5C)c(Cl)ccc24)[C@H](C)CN(c2cccc4cc(C(=O)O)n(Cc5cncnc5)c24)C3=O)cc(C)c1Cl [Example 311] under 0.6 µM?
Result: Not fulfilled

Problem: In plain terms, does Cc1cc(OCCCc2c3n(c4c(-c5c(C)nn(C)c5C)c(Cl)ccc24)[C@H](C)CN(c2cn(C)c4c(C#N)cc(C(=O)O)cc24)C3=O)cc(C)c1Cl [Example 244] come in under 0.6 µM for GI50?
Result: Fulfilled

Problem: State whether 0.6 µM exceeds GI50 recorded for Cc1cc(OCCCc2c3n(c4c(-c5c(C)nn(C)c5C)c(Cl)ccc24)[C@H](C)CN(c2cn(CC(=O)N(C)C)c4ccc(-c5ncn(C)n5)cc24)C3=O)cc(C)c1Cl [Example 560] .
Result: Fulfilled

====

# Target Desc: Mcl-1 (Homo sapiens (Human))
# Method Notes: TR-FRET binding assay, FITC-Bak peptide and MBP-tagged Mcl-1
# Condition Label: read-out: Ki for Inhibition of Mcl-1 by TR-FRET assay
Endpoint: Ki (nM)
# unit: nM | format: bare number

INSERT INTO results (cpd_smiles, target_desc, reported) VALUES
  ('COCCOc1cc(N2C[C@@H](C)n3c(c(CCCOc4cc(C)c(Cl)c(C)c4)c4ccc(Cl)c(-c5c(C)nn(C)c5C)c43)C2=O)c2c(c1)c(C(=O)O)cn2Cc1ccccn1', 'Mcl-1 (Homo sapiens (Human))', 0.26);

Problem: Please report Ki for the following molecule: Cc1cc(OCCCc2c3n(c4c(-c5c(C)nn(C)c5C)c(Cl)ccc24)[C@H](C)CN(c2cc(NC(=O)CCN(C)C)cc4c(C(=O)O)cn(C)c24)C3=O)cc(C)c1Cl
Result: 0.53
